target: G protein-coupled receptor-91 (GPR91) (Rattus norvegicus); experiment: cell-based
Sequence (Q6IYF9 whole entry): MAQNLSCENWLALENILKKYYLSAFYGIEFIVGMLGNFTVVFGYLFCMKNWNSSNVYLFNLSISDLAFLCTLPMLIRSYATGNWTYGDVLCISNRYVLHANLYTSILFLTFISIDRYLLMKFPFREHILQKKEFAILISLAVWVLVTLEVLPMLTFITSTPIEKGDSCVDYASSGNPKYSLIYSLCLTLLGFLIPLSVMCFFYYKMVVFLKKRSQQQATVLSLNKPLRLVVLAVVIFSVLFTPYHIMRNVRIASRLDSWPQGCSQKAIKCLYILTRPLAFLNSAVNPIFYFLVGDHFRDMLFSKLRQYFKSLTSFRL
TEST_READOUT: EC50 (µM)
Numbers only here, please. The scale is µM.

The recorded EC50 for entry O=C(O)CCC(=O)O [succinate] equals 154
